Molecular target: T1, PUF4 RNA-binding domain (Saccharomyces cerevisiae, UniProt P25339 537-888)
T1 sequence: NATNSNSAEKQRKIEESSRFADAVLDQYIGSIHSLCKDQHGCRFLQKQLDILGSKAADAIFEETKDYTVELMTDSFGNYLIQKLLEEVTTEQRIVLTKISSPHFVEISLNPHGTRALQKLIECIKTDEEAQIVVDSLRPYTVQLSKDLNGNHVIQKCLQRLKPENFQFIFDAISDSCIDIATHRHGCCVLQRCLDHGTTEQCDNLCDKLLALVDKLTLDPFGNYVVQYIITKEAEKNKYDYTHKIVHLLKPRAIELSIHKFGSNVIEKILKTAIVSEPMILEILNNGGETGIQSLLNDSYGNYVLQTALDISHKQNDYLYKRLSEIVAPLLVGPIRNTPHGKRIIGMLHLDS
Assay: Mg; RNA-MaP; 20 mM Na-HEPES pH 7.4, 30 mM KOAc, 0.75 mM MgCl2, 0.1% Tween-20, 5% glycerol, 0.1 mg/mL BSA, 2 mM DTT; 25 C; 0.0125-409.6 nM protein
Conditions: tags: N-His6-TEV cleaved; C-SNAP kept, Cy3B-labelled; label: tethered on chip by stalled RNA polymerase
Reported log10 Kd is given for each of the following binders.
All values: base-10 log of Kd in nM.

The examples below pair each entry with its known result.
1. UCUCUUUGUACAUUACUCUCUU (ssRNA) [Ic_S1_P5E.1_K5.1_C5.1_H5.1_A5.1_[T5C]_[T6A]_[A7T]_F5.1_[T9A]_[A10C]_T5.1]
-0.16
2. UCUCUUACUACACUAUAUAUCUCUU (ssRNA) [Id_iii_S1_P3E.7_K3.3_C3.3_[T-3A]_H3.3_A3.1_F3.1_T3.2]
2.95
3. Ib_S2_P4E.1_K4.1_C4.1_H4.1_[A4T]_A4.1_[T7G]_F4.1_T4.1 (ssRNA) RNA: UUUGAUUAAUAUGAUAUCGUUCUUUCUUGUUUAGUAUUCUUUCUCGAUAUCAUAUUAAUCUUU
1.49
4. UCUCUUAUUGUAUAUACCUCUCUU (ssRNA) [Id_ii_S1_P3E.2_K3.1_C3.2_[C-2A]_H3.1_A3.1_F3.1_T3.2_[T9C]_[A10C]]
1.25
5. Ie_S2_P5E.1_K5.1_C5.1_H5.1_[+3TCC]_A5.1_F5.1_T5.1 (ssRNA) RNA: UUUGAUUAAUAUGAUAUCGUUCUUUCUUGUUCCAUUAUUAUUCUUUCUCGAUAUCAUAUUAAUCUUU
1.06

Could you share which log10 Kd value was measured for UCUCUUUGUACCCUUUAUUAUCUCUU (ssRNA) [Ie_S1_P5E.1_K5.1_C5.1_H5.1_[+4CCCT]_A5.1_F5.1_T5.1] ?
1.25

Could you share which log10 Kd value was measured for Ie_S2_P3E.2_K3.1_C3.2_H3.1_A3.1_F3.1_[+8TCTCT]_T3.2 (ssRNA) RNA: UUUGAUUAAUAUGAUAUCGUUCUUUCUCUUGUAUAUAUCUCUUAUUCUUUCUCGAUAUCAUAUUAAUCUUU ?
0.54

Could you share which log10 Kd value was measured for Ie_S2_P5E.1_K5.1_C5.1_H5.1_[+1CTCT]_A5.1_F5.1_T5.1 (ssRNA) RNA: UUUGAUUAAUAUGAUAUCGUUCUUUCUUCUCUGUAUUAUUAUUCUUUCUCGAUAUCAUAUUAAUCUUU ?
0.10

Could you share which log10 Kd value was measured for Id_ii_S2_P4E.3_K4.2_C4.2_[C-2T]_[T-1A]_H4.2_A4.1_F4.1_T4.2_[G10T] (ssRNA) RNA: UUUGAUUAAUAUGAUAUCGUUCUUUCUUAUAUAUAUUAUUUUCUUUCUCGAUAUCAUAUUAAUCUUU ?
1.17

Could you share which log10 Kd value was measured for Id_ii_S4_P3E.3_K3.2_C3.2_[T-1C]_H3.2_A3.1_F3.1_T3.2_[T9G]_[A10T] (ssRNA) RNA: UUUGACAACUGAUCGUUCUUUCUCCUAUAUAUAGUUUCUUUCUCGAUCAGUUGUCUUU ?
2.59
